# Organism: Rattus norvegicus
# Method: Antiovulatory activity was expressed as the percentage of 8 rats blocked at a dose 3 ug.
# Assay type: functional
Entries annotated with measured Antiovulatory activity
Give the number; % is assumed, so skip it.

[
  {
    "Given smiles": "CC(=O)N[C@H](Cc1ccccc1)C(=O)N[C@H](Cc1ccccc1)C(=O)N[C@H](Cc1ccccc1)C(=O)N[C@@H](CO)C(=O)N[C@@H](Cc1ccc(O)cc1)C(=O)N[C@H](CCCN=C(N)N)C(=O)N[C@@H](Cc1ccccc1)C(=O)N[C@@H](CCCN=C(N)N)C(=O)N1CCC[C@H]1C(=O)N[C@H](C)C(N)=O",
    "Antiovulatory activity, %": 0
  },
  {
    "Given smiles": "CC(=O)N[C@H](Cc1ccc(Cl)cc1)C(=O)N[C@H](Cc1ccccc1)C(=O)N[C@H](Cc1ccccc1)C(=O)N[C@@H](CO)C(=O)N[C@@H](Cc1ccc(O)cc1)C(=O)N[C@H](CCCN=C(N)N)C(=O)N[C@@H](Cc1ccccc1)C(=O)N[C@@H](CCCN=C(N)N)C(=O)N1CCC[C@H]1C(=O)N[C@H](C)C(N)=O",
    "Antiovulatory activity, %": 63
  },
  {
    "Given smiles": "CC(=O)N[C@H](Cc1ccc2ccccc2c1)C(=O)N[C@H](Cc1ccc(Cl)cc1)C(=O)N[C@H](Cc1ccc(Cl)cc1)C(=O)N[C@@H](CO)C(=O)N[C@@H](Cc1ccc(O)cc1)C(=O)N[C@H](CCCN=C(N)N)C(=O)N[C@@H](Cc1ccccc1)C(=O)N[C@@H](CCCN=C(N)N)C(=O)N1CCC[C@H]1C(=O)N[C@H](C)C(N)=O",
    "Antiovulatory activity, %": 63
  }
]

Return Antiovulatory activity for the following molecule: CC(=O)N[C@H](Cc1ccc2ccccc2c1)C(=O)N[C@H](Cc1ccc2ccccc2c1)C(=O)N[C@H](Cc1ccc(O)cc1)C(=O)N[C@@H](CO)C(=O)N[C@@H](Cc1ccc(O)cc1)C(=O)N[C@H](CCCN=C(N)N)C(=O)N[C@@H](Cc1ccccc1)C(=O)N[C@@H](CCCN=C(N)N)C(=O)N1CCC[C@H]1C(=O)N[C@H](C)C(N)=O
38
